B1: SMOC2 (parent)
chain: QKPLCASDGRTFLSRCEFQRAKCK

# Variants of: B1
# protocol: protein stability index of a GFP-peptide fusion (GPS, HEK-293T) (PSI 1-6); higher = more stable;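 also: lentivirally expressed fusions sorted by FACS into six bins by GFP to DsRed ratio, PSI derived from sequencing read proportions per bin multiplied by bin number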
# protocol_conditions: c terminus: a fixed tail appended
Quick list: protein stability index per entry.

monomer_sequence	measured_attribute	reading
QKPLRASDGRTFLSRCEFQRAKCK	protein stability index	2.5
QKPLCASDGRTELSRCEFQRAKCK	protein stability index	4.5

Query: protein stability index; subject: QKPLCASDGRTFLKRCEFQRAKCK
2.93

Query: protein stability index; subject: QKPLCASDGRTFLSRCEFARAKCK
2.98
